Values were extracted from patent US4829086A.

ASSAY METHOD TEXT: Enzymatic hydrolytic cleavage in human plasma
Type: in vitro ADME
RUN CONDITIONS: human, plasma, read-out: in vitro plasma half-life
ENDPOINT LABEL: half-life at 1000 µM

• CC(C)NCC(O)COc1ccc(CC(=O)OC2CC(C)(C)CC(C)(C)C2)cc1 (centres unmarked) [Compound 17, hydrate] = ~1 min

Hello, please tell me recorded half-life at 1000 µM for this one: CCCCOC(=O)Cc1ccc(OCC(O)CNC(C)C)cc1 (centres unmarked)
~1 min

----------
Answer each item with its documented half-life at 1000 µM.
ASSAY METHOD TEXT: Enzymatic hydrolytic cleavage in human plasma
Type: in vitro ADME
RUN CONDITIONS: human, plasma, 37.0 ± 0.1° C., read-out: Half-life t1/2
Structures can show the parent of a compound that is named as a salt.
Answers are plain numbers, in min.

These recorded examples may help you get a feel for the data.
* CC(C)NCC(O)COc1ccc(CC(=O)OC2CC(C)(C)CC(C)(C)C2)cc1 (centres unmarked) [Compound 17, hydrate] | 1.22
* CCOC(=O)Cc1ccc(OCC(O)CNC(C)C)cc1 (centres unmarked) | 2.91
* CCCOC(=O)Cc1ccc(OCC(O)CNC(C)C)cc1 (centres unmarked) | 4.86
* CC(C)NCC(O)COc1ccc(CC(=O)OC2C(C)CCCC2C)cc1 (centres unmarked) [Compound 16, oxalate hydrate] | 42.2

Please examine the following record next.
Hello, please tell me recorded half-life at 1000 µM for this one: CC(C)NCC(O)COc1ccc(CC(=O)OC(C)C)cc1 (centres unmarked)
167

----------
Answer each item with its documented Observed first order hydrolytic rate constant k.
ASSAY METHOD TEXT: Enzymatic hydrolytic cleavage in human plasma
Type: in vitro ADME
RUN CONDITIONS: 37.0 ± 0.1° C., ± SEM
Structures can show the parent of a compound that is named as a salt.
One number for each entry, in min⁻¹.

- CC(C)NCC(O)COc1ccc(CC(=O)OC2CC(C)(C)CC(C)(C)C2)cc1 (centres unmarked) [Compound 17, hydrate]: 0.566
- CCCCOC(=O)Cc1ccc(OCC(O)CNC(C)(C)C)cc1 (centres unmarked) [Compound 18, oxalate hydrate]: 0.351
- CCOC(=O)Cc1ccc(OCC(O)CNC(C)C)cc1 (centres unmarked) [Compound 10]: 0.238
- CC(C)NCC(O)COc1ccc(CC(=O)OC2CCCCC2)cc1 (centres unmarked) [Compound 15, hydrate]: 1.46
- CC(C)NCC(O)COc1ccc(CC(=O)OCc2ccccc2)cc1 (centres unmarked) [Compound 14]: 0.236

Please examine the following record next.
Hello, please tell me recorded Observed first order hydrolytic rate constant k for this one: CCCOC(=O)Cc1ccc(OCC(O)CNC(C)C)cc1 (centres unmarked) [Compound 11]
0.143

----------
ASSAY METHOD TEXT: Hydrolysis in 0.01M phosphate buffer pH 7.4
Type: physicochemical
RUN CONDITIONS: pH 7.4, 37° C.
Answer each item with its documented half-life.
Answers are plain numbers, in days.

* CCCOC(=O)Cc1ccc(OCC(O)CNC(C)C)cc1 (centres unmarked) | 8.7

Please examine the following record next.
Hello, please tell me recorded half-life for this one: CC(C)NCC(O)COc1ccc(CC(=O)OCc2ccccc2)cc1 (centres unmarked)
13

----------
ASSAY METHOD TEXT: Enzymatic hydrolytic cleavage in human plasma
Type: in vitro ADME
RUN CONDITIONS: human, plasma, 37.0 ± 0.1° C., read-out: Half-life t1/2
Where a name gives a salt, the structure may show the parent alone.
ENDPOINT LABEL: half-life at 1000 µM
Could you give the number and then its unit, please?

These recorded examples may help you get a feel for the data.
- CC(C)NCC(O)COc1ccc(CC(=O)OCc2ccccc2)cc1 (stereo not drawn): 2.93 min
- CC(C)NCC(O)COc1ccc(CC(=O)OC2CCCCC2)cc1 (stereo not drawn) [Compound 15, hydrate]: 0.47 min

Please examine the following record next.
Hello, please tell me recorded half-life at 1000 µM for this one: CCCCOC(=O)Cc1ccc(OCC(O)CNC(C)(C)C)cc1 (stereo not drawn) [Compound 18, oxalate hydrate]
1.98 min
